For each entry below, report its GI50 value.
System: LoVo
assay explanation: SRB colorimetric assay of cell growth and viability, LoVo
Format: cell-based, human
recorded conditions: 48 hours exposure
Where a SMILES comes first, the peptide text is derived from it. Bridges are numbered along the chain shown (N, C = ends). [ ]: non-standard residue; d: D form. The star is where a group is joined. d(aIle) = CC[C@H](C)[C@@H](N)C(=O)O; d(aThr) = C[C@@H](O)[C@@H](N)C(=O)O; Hexanoyl(5-Me) = CC(C)CCCC(=O)*; Orn = NCCC[C@H](N)C(=O)O; Dhb = C/C=C(\N)C(=O)O
Answers are plain numbers, in µM.

Please review the following examples before continuing.
Fill in the recorded GI50 for this molecule, with LoVo as test system: C/C=C1\NC(=O)[C@H](Cc2ccccc2)NC(=O)[C@@H](C(C)C)NC(=O)[C@@H]([C@@H](C)CC)NC(=O)[C@H](NC(=O)[C@H](NC(=O)[C@H](CCCN)NC(=O)[C@H]2CCCN2C(=O)[C@H](NC(=O)[C@H](CCC(=O)O)NC(=O)[C@@H](NC(=O)[C@H](NC(=O)CCCC(C)C)C(C)C)[C@@H](C)O)C(C)C)[C@@H](C)CC)[C@@H](C)OC(=O)[C@H](C(C)C)NC1=O [Compound 51, [Glu^11]-KF] ({Hexanoyl(5-Me)}-[dV]TE[dV][dP][Orn][d(aIle)][d(aThr)][d(aIle)][dV]F[Dhb]V; ester 8-C) 6.63

Fill in the recorded GI50 for this molecule, with LoVo as test system: C/C=C1\NC(=O)[C@H](Cc2ccccc2)NC(=O)[C@@H](C(C)C)NC(=O)[C@@H](C(C)C)NC(=O)[C@H](NC(=O)[C@H](NC(=O)[C@H](CCCN)NC(=O)[C@H]2CCCN2C(=O)[C@H](NC(=O)[C@@H](NC(=O)[C@@H](NC(=O)[C@H](NC(=O)CCCC(C)C)C(C)C)[C@@H](C)O)C(C)C)C(C)C)C(C)C)[C@@H](C)OC(=O)[C@H](C(C)C)NC1=O [Compound 12, [D-Val^5, D-Val^7]-KF] ({Hexanoyl(5-Me)}-[dV]TV[dV][dP][Orn][dV][d(aThr)][dV][dV]F[Dhb]V; ester 8-C) 1.26

Fill in the recorded GI50 for this molecule, with LoVo as test system: C/C=C1\NC(=O)[C@H](Cc2ccccc2)NC(=O)[C@@H](C(C)C)NC(=O)[C@@H]([C@@H](C)CC)NC(=O)[C@H](NC(=O)[C@H](NC(=O)[C@H](CCCCN)NC(=O)[C@H]2CCCN2C(=O)[C@H](NC(=O)[C@@H](NC(=O)[C@@H](NC(=O)[C@H](NC(=O)CC[C@@H](C)CC)C(C)C)[C@@H](C)O)C(C)C)C(C)C)[C@@H](C)CC)[C@@H](C)OC(=O)[C@H](C(C)C)NC1=O [Compound 30, [Lys^8, (4S)-MeHex^14]-KF] 0.135

We now examine a further molecule.
Fill in the recorded GI50 for this molecule, with LoVo as test system: C/C=C1\NC(=O)[C@H](Cc2ccccc2)NC(=O)[C@@H](C(C)C)NC(=O)[C@@H]([C@@H](C)CC)NC(=O)[C@H](NC(=O)[C@H](NC(=O)[C@H](CCCN)NC(=O)[C@H]2CCCN2C(=O)[C@H](NC(=O)[C@@H](NC(=O)[C@@H]2CCCN2C(=O)CCCC(C)C)C(C)C)C(C)C)[C@@H](C)CC)[C@@H](C)OC(=O)[C@H](C(C)C)NC1=O [Compound 55, [Pro^12, noD-Val^13]-KF] ({Hexanoyl(5-Me)}-PV[dV][dP][Orn][d(aIle)][d(aThr)][d(aIle)][dV]F[Dhb]V; ester 7-C) 7.27
